Source: ChEMBL document CHEMBL2177010

Quick record of log10 IC50 values for RAC-alpha serine/threonine-protein kinase (Homo sapiens, UniProt P31749).
Log10 applied to IC50; unit prior to transform: nM.

Below, 5 molecules whose answers are already recorded.
C[C@@H]1C[C@@H](O)c2ncnc(N3CCN(C(=O)[C@H](CN4CCC(F)CC4)c4ccc(Cl)cc4)CC3)c21 : 2.29
C[C@@H]1C[C@@H](O)c2ncnc(N3CCN(C(=O)[C@@H](c4ccc(Cl)cc4)[C@@H]4CCCCN4)CC3)c21 : 2.72
CC(C)NC[C@@H](C(=O)N1CCN(c2ncnc3c2[C@H](C)C[C@H]3O)CC1)c1ccc(Cl)c(F)c1 : 2.37
CC(C)NC[C@@H](C(=O)N1CCN(c2ncnc3c2[C@H](C)CC3(F)F)CC1)c1ccc(Cl)cc1 : 3.93
CC(C)NC[C@@H](C(=O)N1CCN(c2ncnc3c2[C@H](CF)CC3)CC1)c1ccc(Cl)cc1 : 2.09

Each of the following entries comes with a recorded value; kindly state log10 IC50 for each.
1. C[C@@H]1C[C@@H](O)c2ncnc(N3CCN(C(=O)[C@H](CNCCF)c4ccc(Cl)cc4)CC3)c21
2. C[C@@H]1C[C@@H](O)c2ncnc(N3CCN(C(=O)[C@H](CNC4CCCCC4)c4ccc(Cl)cc4)CC3)c21
3. C[C@@H]1C[C@@H](O)c2ncnc(N3CCN(C(=O)[C@@H](c4ccc(Cl)cc4)[C@@H]4CCCN4)CC3)c21
4. COCCNC[C@@H](C(=O)N1CCN(c2ncnc3c2[C@H](C)C[C@H]3O)CC1)c1ccc(Cl)cc1
5. C=C[C@@H]1CCc2ncnc(N3CCN(C(=O)[C@H](CNC(C)C)c4ccc(Cl)cc4)CC3)c21
6. CC(C)NC[C@@H](C(=O)N1CCN(c2ncnc3c2[C@H](C)CC3)CC1)c1ccc(Cl)cc1
7. C[C@@H]1C[C@@H](O)c2ncnc(N3CCN(C(=O)[C@H](CNCC4CCOCC4)c4ccc(Cl)cc4)CC3)c21

3.11
2.56
2.38
2.58
2.25
2.46
2.01
